Source of measurements: the array DNA melting data of Ke et al. (doi:10.1101/2024.01.08.574731)

Experiment: melting temperature; fluorescence melt of hairpins on a sequencing array, two-state fit, raised by 9.35 °C to match UV melts
Settings: sodium 0.088 M
Label scheme for Tm: bottom range: < 40 °C; center range: ≥ 40 °C and < 50 °C; top range: ≥ 50 °C

Query :: Which bin, given its Tm, does CAGAGGAAACTCTG (((((....))))) occupy?
Result :: center range

Query :: Also, CGTTCGGAAACGATCACG ((((((....)))..))) please.
Result :: bottom range

Query :: Also, GTTGAAGGAAACTTTAAC (((.(((....))).))) please.
Result :: bottom range

Query :: Also, GATATCGGAAACGACATC (((.(((....))).))) please.
Result :: bottom range

Query :: Also, GATCACAAACGTGATC ((((((....)))))) please.
Result :: top range

Query :: Also, GATCCGTATTCGGATC ((((((....)))))) please.
Result :: top range

Others:
Query :: Which bin, given its Tm, does GATCCACCGGTGGATC ((((((....)))))) occupy?
Result :: top range

Query :: Also, TCTGGGAAACCAGA (((((....))))) please.
Result :: center range

Query :: Also, GATCGGAGGCCCGATC ((((((....)))))) please.
Result :: top range

Query :: Also, GTAATGCGAAAGCATAC (((.(((....)))))) please.
Result :: center range

Query :: Also, GACTTGAAAAAGTC (((((....))))) please.
Result :: center range

Query :: Also, GATCTCACGCGAGATC ((((((....)))))) please.
Result :: top range

====

Test: melting temperature; fluorescence melt of hairpins on a sequencing array, two-state fit, raised by 9.35 °C to match UV melts
Details: sodium 0.088 M
The entries below are paired with their reported Tm.
Answer format: numeric, °C implied, no suffix.

Query :: Recorded Tm for GGGAGGCCGAAAGGCCCC (((..(((....)))))) , please?
Result :: 56.6

Query :: Also, GAGAACGAAAGTTCCCTC ((((((....)))..))) please.
Result :: 38.9

Query :: Also, GGCTCCGAAAGGACGGCC ((((((....)))..))) please.
Result :: 51.2

Others:
Query :: Recorded Tm for GATCTACATCTAGATC ((((((....)))))) , please?
Result :: 36.8

Query :: Also, GGGAACGAAAGTTGTCCC ((((((....)))..))) please.
Result :: 36.4

Query :: Also, GGTGGCGGAAACGCTGCC ((..(((....)))..)) please.
Result :: 54.5

Query :: Also, GATCCATACTGGATC ((((((...)))))) please.
Result :: 51.4

Query :: Also, GATCAACGTTTTGATC ((((((....)))))) please.
Result :: 42.8

Query :: Also, GGTCTGGGAAACCGGATC (.((.((....)).)).) please.
Result :: 40

Query :: Also, GCGACGGGAAACCGTCAC (.(((((....))))).) please.
Result :: 48.7

Query :: Also, GCACTTCGAAAGAATGC (((.(((....)))))) please.
Result :: 41.5

Query :: Also, GATCTGATATCAGATC ((((((....)))))) please.
Result :: 51

Query :: Also, GTACTCGAAAGAGCTAC ((((((....))).))) please.
Result :: 35

Query :: Also, GTGAATGGAAACATCCAC (((.(((....))).))) please.
Result :: 34.6

====

Assay: melting temperature; fluorescence melt of hairpins on a sequencing array, two-state fit, raised by 9.35 °C to match UV melts
Settings: sodium 0.088 M
measured_metric: Tm (°C)
Answer format: numeric, °C implied, no suffix.

Query :: Recorded Tm for GCGAGCGAAAGCTGTCGC ((((((....)))..))) , please?
Result :: 52.9

Query :: Also, GCCAAGCGAAAGCCCGGC (((..((....))..))) please.
Result :: 45.8

Query :: Also, GAGATACGAAAGTACTC (((.(((....)))))) please.
Result :: 36.7

Query :: Also, GATTTGACGAAAGTCATC (((..(((....)))))) please.
Result :: 27.3

Others:
Query :: Recorded Tm for GTGTCTCGAAAGAGCAC (((.(((....)))))) , please?
Result :: 52.2

Query :: Also, GTGATCGAAAGATATCAC ((((((....)))..))) please.
Result :: 34.5

Query :: Also, GGAGTCGAAAGACTTTCC ((((((....)))..))) please.
Result :: 34

Query :: Also, GCCAAAACGAAAGTTGGC (((..(((....)))))) please.
Result :: 51.4

Query :: Also, CGCGCGGAAACGCATGCG ((((((....)))..))) please.
Result :: 52.9

====

The entries below are paired with their reported folding enthalpy.
Assay: folding enthalpy; higher = less favourable; fluorescence melt of hairpins on a sequencing array, two-state fit
Conditions: sodium 0.088 M

Below, each entry is followed by its recorded folding enthalpy result.
Query :: Recorded folding enthalpy for GGCGAAGGAAACTTCACC ((.((((....)))).)) , please?
Result :: -32.8 kcal/mol

Query :: Also, CGGTCGGAAACGACTCCG ((((((....)))..))) please.
Result :: -13.3 kcal/mol

Query :: Also, GCTTGACGAAAGTCGAGC (((.(((....))).))) please.
Result :: -39 kcal/mol

Query :: Also, GCCAGCGAAAGCTCGGC ((((((....))).))) please.
Result :: -28.4 kcal/mol

Query :: Also, GAGTGCGGAAACGCGCTC (((.(((....))).))) please.
Result :: -31.7 kcal/mol

Query :: Also, GGGATGGGAAACCGTCCC ((((.((....)).)))) please.
Result :: -50.5 kcal/mol

Query :: Also, GTAGTCGAAAGACGTAC ((((((....))).))) please.
Result :: -19.1 kcal/mol

Query :: Also, GTGGCCTCGAAAGAGCAC (((..(((....)))))) please.
Result :: -14.7 kcal/mol

Others:
Query :: Recorded folding enthalpy for GGTGTTCGAAAGAAACC (((.(((....)))))) , please?
Result :: -14.1 kcal/mol

Query :: Also, GGCCCCGAAAGGGCTGCC ((((((....)))..))) please.
Result :: -15.1 kcal/mol

Query :: Also, GCTATGCGAAAGCGTAGC ((((.((....)).)))) please.
Result :: -34.5 kcal/mol

Query :: Also, GGCCACGGAAACGTAGCC (((.(((....))).))) please.
Result :: -28 kcal/mol

====

Experiment: folding enthalpy; higher = less favourable; fluorescence melt of hairpins on a sequencing array, two-state fit
Settings: sodium 0.088 M
Label scheme for folding enthalpy: 1 = under -30 kcal/mol, 2 = from -30 kcal/mol up to -20 kcal/mol, 3 = -20 kcal/mol and over

Query :: Which bin, given its folding enthalpy, does GAAACCCGAAAGGGATTC (((.(((....))).))) occupy?
Result :: 2

Query :: Also, GCTTTGCGAAAGCTAGGC ((.(.((....)).).)) please.
Result :: 3

Query :: Also, GCTTAAGGAAACTCAAGC ((((.((....)).)))) please.
Result :: 3

Query :: Also, GTCGCGCGAAAGCGAGAC (((.(((....))).))) please.
Result :: 2

Others:
Query :: Which bin, given its folding enthalpy, does GAGTTAGGAAACTAACCC (.(((((....))))).) occupy?
Result :: 3

Query :: Also, GTCCAGGAAACTGGAC ((((((....)))))) please.
Result :: 1

Query :: Also, GACCCCGAAAGGGTCGTC ((((((....)))..))) please.
Result :: 2

Query :: Also, GAGCCTGGAAACAGACTC (((.(((....))).))) please.
Result :: 1

Query :: Also, GATCGTCAACACGATC ((((((....)))))) please.
Result :: 1

====

Assay: folding enthalpy; higher = less favourable; fluorescence melt of hairpins on a sequencing array, two-state fit
Conditions: sodium 0.088 M
Classification field: true = folding enthalpy at or over -20 kcal/mol; false = folding enthalpy under -20 kcal/mol.

Record excerpt, results attached:
Query :: Has GGTGGAGGAAACTCTGCC ((..(((....)))..)) a recorded folding enthalpy greater than or equal to -20 kcal/mol?
Result :: false

Query :: Also, GCATAGCGAAAGCTGTGC (((.(((....))).))) please.
Result :: false

Query :: Also, GGACTTCGAAAGAATTCC (((.(((....))).))) please.
Result :: false

Query :: Also, GGGGAAGAAATTCCCC ((((((....)))))) please.
Result :: false

Query :: Also, GATAACCGAAAGGTAATC (((.(((....))).))) please.
Result :: false

Others:
Query :: Has GCGTACGAAAGTATCCGC ((((((....)))..))) a recorded folding enthalpy greater than or equal to -20 kcal/mol?
Result :: false
